Form field: FPD measurement (one value per entry).
- Experimental Protocol: Electrical activity assay on cell lines treated with a given drug. DMSO was used as a vehicle and a control, unblinded dofetilide was used as a control.
- Run Parameters: human, ipsc-cm, 10 µM
Recorded Endpoint: FPD measurement (FPDc)

Compound: CC(C)N(CCC(C(N)=O)(c1ccccc1)c1ccccn1)C(C)C (stereo not given) [DISOPYRAMIDE]
Recorded Endpoint: FPD measurement
Assay Result: 68.66
--
Compound: COc1cc2c(Nc3ccc(Br)cc3F)ncnc2cc1OCC1CCN(C)CC1
Recorded Endpoint: FPD measurement
Assay Result: 78.14
--
Compound: COc1ccccc1OCC(O)CN1CCN(CC(=O)Nc2c(C)cccc2C)CC1 (stereo not given)
Recorded Endpoint: FPD measurement
Assay Result: 57.23
--
Compound: Cc1cccc(C)c1OCC(C)N (stereo not given)
Recorded Endpoint: FPD measurement
Assay Result: 63.09
--
Compound: CC(C)NCC(O)c1ccc(NS(C)(=O)=O)cc1 (stereo not given)
Recorded Endpoint: FPD measurement
Assay Result: 71.54
